Catalogue of molecules with associated Activity
test system: Rattus norvegicus; assay: Antiinflammatory against carrageenan-induced paw edema in Sprague-Dawley rat assessed as remaining paw edema at 50 mg/kg, sc administered 30 mins before carrageenan challenge measured after 1 hr by plethysmometer relative to control; type: functional; conditions: route subcutaneous
Numbers only; they are read as %.

Record excerpt, results attached:
{"Chemical smiles": "NNC(=O)Nc1cc2cc([N+](=O)[O-])ccc2s1", "Activity [%]": 45.9}
{"Chemical smiles": "O=C(NNC(=S)Nc1ccccc1)c1cc2cc([N+](=O)[O-])ccc2s1", "Activity [%]": 35.7}
{"Chemical smiles": "O=C(N/N=C/c1c[nH]c2ccccc12)c1cc2cc([N+](=O)[O-])ccc2s1", "Activity [%]": 36.9}
{"Chemical smiles": "NNC(=O)c1cc2cc([N+](=O)[O-])ccc2s1", "Activity [%]": 38.2}

Query: Give the reported Activity for Cc1ccc(/C=N/NC(=O)c2cc3cc([N+](=O)[O-])ccc3s2)o1 (system: Rattus norvegicus).
Response: 37.5
